System: gene editing with Cas9
Measurement Protocol: Screen of 322 new SSAP proteins, gene editing activity with Cas9 (Table 5)
Format: cell-based
Conditions: normalized
Recorded Metric: Cas9 with SSAP activity (normalized)
Form: value (number only, do not type unit).

-- ask Could you share which Cas9 with SSAP activity (normalized) value was measured for SSAP_246: SEQ ID NO: 415; Anoxybacillus (protein, listed as Anoxybacillus sp.) ATTQSLKNQIAKKQNSNIQQGVTLKQLLNSESMKKRFEEVLGKRAQQFATSILNLYNSEKMLQKCEPMSIISSAMVAASLDLPVDKNLGYMYIVPYGTTATPIMGYRGYIQLALRTGQYKHINVIEVYEGELQKWDRLTEEFEMDSKQKKSDVVVGYAAYFELINGFRKTVYWTREQIEAHRKKYSKSDFGWKNDFDAMAKKTVLKSLLSKWGILSIEMQNAFNEDEKEVDTKEVKDITSEVQEAEYIEAEAFEVPIETETPQQEEIVFDAQ ?
-- reply 0.919

-- ask Also SSAP_258: SEQ ID NO: 427; Clostridium thermopalmarium (protein, listed as Clostridium thermopalmarium) ATVNELKNEIATKKETGVGSAGNTIKGLINSPAIKKRFEDVLNKKAPQYMSSIVNLVNGDTNLKKCDQMSVIASCMVAATLDLPIDKNLGYAWIVPYGNRAQFQLGYKGYVQLALRTGQYKAINVIEVHEGELIEWNPLTEELKIDFSQKKSDAIIGYAGYFELLNGFKKSTYWTKEQIIRHKNKFSKSDFGWKKDFDAMAKKTVLRNMLSKWGILSIEMQNAYTADQATIRPEAVETGDIKGNVDYVEADFEENYEGTPFEEVEEGGVNE , if possible.
-- reply −0.553
